Target: recombinant human BACE-1 (rhBACE-1) (Homo sapiens)
Construct: expressed as only an extracellular region (amino acid 1-460 residues) of recombinant human β-secretase; His tag (C); purchased R&D systems (Minneapolis, Minn.); host or cells: murine myeloma cell line NS0
Sequence (P56817 46-460 limits assumed): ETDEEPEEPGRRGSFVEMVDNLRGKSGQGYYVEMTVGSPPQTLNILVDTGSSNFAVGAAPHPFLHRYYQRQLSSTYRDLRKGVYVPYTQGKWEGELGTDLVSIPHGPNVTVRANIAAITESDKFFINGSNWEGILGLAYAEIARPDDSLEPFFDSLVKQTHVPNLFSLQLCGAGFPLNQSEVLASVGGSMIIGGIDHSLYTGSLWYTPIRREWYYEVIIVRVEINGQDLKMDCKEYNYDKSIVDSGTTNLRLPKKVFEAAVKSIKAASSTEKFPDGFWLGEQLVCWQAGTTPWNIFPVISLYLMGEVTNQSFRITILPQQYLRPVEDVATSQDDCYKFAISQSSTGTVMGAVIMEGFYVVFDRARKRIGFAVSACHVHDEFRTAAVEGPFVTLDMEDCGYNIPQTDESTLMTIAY
Test: BACE1 inhibitory activity, rhBACE-1 with fluorogenic peptide substrate, reverse phase HPLC
Assay type: biochemical
Settings: inhibitor 2 μM; MES buffer pH 5.0, 37° C., 60 minutes; read-out: Inhibitory rate (%) (2 μM)
Label TRUE when inhibition at 2 µM >= 50%; otherwise FALSE.

Is reported inhibition at 2 µM greater than or equal to 50% here: C[C@@H](NC(=O)c1cccc(C(=O)NC(Cc2ccccc2)[C@H](O)C(=O)Nc2cccc(-c3nn[nH]n3)c2)n1)c1ccccc1 (stereo partly drawn) [Example 9]
TRUE

Note: attention shifts to another entry.
Is reported inhibition at 2 µM greater than or equal to 50% here: CC(C)(NC(=O)c1cccc(C(=O)NC(Cc2ccccc2)[C@H](O)C(=O)NS(=O)(=O)C(F)(F)F)n1)c1ccccc1 (stereo partly drawn) [Example 17]
FALSE

The measurements presented in this section are drawn from patent US8344002B2.
